- System: Escherichia coli
- run description: Antibacterial activity against Escherichia coli harboring TolC deletion mutant by microbroth dilution method
- Format: functional
- protocol conditions: Escherichia coli; read-out: MIC
Recorded MIC by entry
// return numeric value only (unit: µg/mL, not printed)

Sample records with MIC:
COc1ccc2cc1Oc1cc(ccc1OC)CCC(NCCc1ccc(F)cc1)CCCC2 (stereo unspecified) = 12.5
COc1ccc2cc1Oc1cc(ccc1OC)CCC(NCCCc1ccccc1)CCCC2 (stereo unspecified) = 12.5

*Q* Entry COc1ccc2cc1Oc1cc(ccc1OC)CCC(NC/C=C(\C)CCC=C(C)C)CCCC2 (stereo unspecified) has what MIC?
*A* 6.25

*Q* Entry COc1ccc2cc1Oc1cc(ccc1OC)CCC(NCCCCc1ccccc1)CCCC2 (stereo unspecified) has what MIC?
*A* 12.5

Hello, the source for this data is ChEMBL document CHEMBL4477227, in case you need it.
